test: Inhibition of bacterial beta-glucuronidase using 4-nitrophenyl beta-D-glucuronopyranoside as substrate; set-up: species or system Bacteria
The reader will find reported IC50 values listed item by item below.
// units = µM; emit number, no label

# structure smiles, IC50 [µM]
data = [
    ("O=C(O)[C@@H]1[C@@H](O)[C@H](O)[C@@]2(O)CC[C@@H]1N2", 60),
]

Continue with the next molecule.
## Input Find the recorded IC50 belonging to "COc1ccc(-c2nnc(Nc3ccc(Cl)c(Cl)c3)s2)cc1" and report it.
## Output 22.6

====

The reader will find reported inhibition values listed item by item below.
biological target: Beta-glucuronidase (Homo sapiens) (UniProt P08236); test: Inhibition of beta-glucuronidase (unknown origin) at 1 uM relative to control
Sequence (P08236 whole entry): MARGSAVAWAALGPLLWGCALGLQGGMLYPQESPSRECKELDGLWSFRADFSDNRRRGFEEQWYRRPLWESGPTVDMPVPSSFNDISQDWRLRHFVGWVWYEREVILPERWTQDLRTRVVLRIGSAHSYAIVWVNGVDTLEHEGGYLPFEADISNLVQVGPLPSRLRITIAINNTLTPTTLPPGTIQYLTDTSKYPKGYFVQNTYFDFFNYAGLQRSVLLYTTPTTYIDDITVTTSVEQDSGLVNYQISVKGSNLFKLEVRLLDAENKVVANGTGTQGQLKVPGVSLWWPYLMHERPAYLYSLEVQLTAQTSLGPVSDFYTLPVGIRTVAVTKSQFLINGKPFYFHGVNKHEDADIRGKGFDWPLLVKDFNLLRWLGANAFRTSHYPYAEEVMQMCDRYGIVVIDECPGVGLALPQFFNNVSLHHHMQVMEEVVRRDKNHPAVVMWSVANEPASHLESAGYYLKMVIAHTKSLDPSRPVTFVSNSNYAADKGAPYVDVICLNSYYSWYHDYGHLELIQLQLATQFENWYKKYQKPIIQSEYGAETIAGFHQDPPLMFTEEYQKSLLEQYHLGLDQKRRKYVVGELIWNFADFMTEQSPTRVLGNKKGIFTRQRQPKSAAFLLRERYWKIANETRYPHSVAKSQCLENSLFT

See these solved cases before continuing.
# structure smiles, measurement target, outcome measure, result
measured = [
    ("CCOC(=O)[C@@H]1Oc2cc(C)n(Cc3ccccc3)c(=O)c2[C@H]1c1ccc(F)cc1", "Beta-glucuronidase (Homo sapiens) (UniProt P08236)", "inhibition", "> 70%"),
    ("CCOC(=O)[C@@H]1Oc2cc(C)n(Cc3ccc(OC)cc3)c(=O)c2[C@H]1c1ccc(C(F)(F)F)cc1", "Beta-glucuronidase (Homo sapiens) (UniProt P08236)", "inhibition", "> 70%"),
    ("CCOC(=O)[C@@H]1Oc2cc(C)n(Cc3ccccc3)c(=O)c2[C@H]1c1ccc(C)cc1", "Beta-glucuronidase (Homo sapiens) (UniProt P08236)", "inhibition", "> 70%"),
    ("CCOC(=O)[C@@H]1Oc2cc(C)n(Cc3ccccc3)c(=O)c2[C@H]1c1cccnc1", "Beta-glucuronidase (Homo sapiens) (UniProt P08236)", "inhibition", "< 45%"),
    ("CCOC(=O)[C@@H]1Oc2cc(C)n(Cc3ccccc3)c(=O)c2[C@H]1c1cc(OC)c(OC)cc1OC", "Beta-glucuronidase (Homo sapiens) (UniProt P08236)", "inhibition", "> 70%"),
]

## Input Find the recorded inhibition belonging to "CCOC(=O)[C@@H]1Oc2cc(C)n(Cc3ccccc3)c(=O)c2[C@H]1c1ccco1" and report it.
## Output < 45%

## Input Repeat with "CCOC(=O)[C@@H]1Oc2cc(C)n(Cc3ccccc3)c(=O)c2[C@H]1c1ccc(Cl)cc1Cl"
## Output > 70%

## Input Repeat with "CCOC(=O)[C@@H]1Oc2cc(C)n(Cc3ccc(OC)cc3)c(=O)c2[C@H]1c1ccc(C(F)(F)F)cc1C(F)(F)F"
## Output > 70%

## Input Repeat with "CCOC(=O)[C@@H]1Oc2cc(C)n(Cc3ccccc3)c(=O)c2[C@H]1c1cccs1"
## Output < 45%
